- systemUnderTest: Chromo domain-containing protein 1 (Saccharomyces cerevisiae (strain ATCC 204508 / S288c) (Baker's yeast)) (UniProt P32657)
- Sequence (P32657 whole entry, the tested form may be a part): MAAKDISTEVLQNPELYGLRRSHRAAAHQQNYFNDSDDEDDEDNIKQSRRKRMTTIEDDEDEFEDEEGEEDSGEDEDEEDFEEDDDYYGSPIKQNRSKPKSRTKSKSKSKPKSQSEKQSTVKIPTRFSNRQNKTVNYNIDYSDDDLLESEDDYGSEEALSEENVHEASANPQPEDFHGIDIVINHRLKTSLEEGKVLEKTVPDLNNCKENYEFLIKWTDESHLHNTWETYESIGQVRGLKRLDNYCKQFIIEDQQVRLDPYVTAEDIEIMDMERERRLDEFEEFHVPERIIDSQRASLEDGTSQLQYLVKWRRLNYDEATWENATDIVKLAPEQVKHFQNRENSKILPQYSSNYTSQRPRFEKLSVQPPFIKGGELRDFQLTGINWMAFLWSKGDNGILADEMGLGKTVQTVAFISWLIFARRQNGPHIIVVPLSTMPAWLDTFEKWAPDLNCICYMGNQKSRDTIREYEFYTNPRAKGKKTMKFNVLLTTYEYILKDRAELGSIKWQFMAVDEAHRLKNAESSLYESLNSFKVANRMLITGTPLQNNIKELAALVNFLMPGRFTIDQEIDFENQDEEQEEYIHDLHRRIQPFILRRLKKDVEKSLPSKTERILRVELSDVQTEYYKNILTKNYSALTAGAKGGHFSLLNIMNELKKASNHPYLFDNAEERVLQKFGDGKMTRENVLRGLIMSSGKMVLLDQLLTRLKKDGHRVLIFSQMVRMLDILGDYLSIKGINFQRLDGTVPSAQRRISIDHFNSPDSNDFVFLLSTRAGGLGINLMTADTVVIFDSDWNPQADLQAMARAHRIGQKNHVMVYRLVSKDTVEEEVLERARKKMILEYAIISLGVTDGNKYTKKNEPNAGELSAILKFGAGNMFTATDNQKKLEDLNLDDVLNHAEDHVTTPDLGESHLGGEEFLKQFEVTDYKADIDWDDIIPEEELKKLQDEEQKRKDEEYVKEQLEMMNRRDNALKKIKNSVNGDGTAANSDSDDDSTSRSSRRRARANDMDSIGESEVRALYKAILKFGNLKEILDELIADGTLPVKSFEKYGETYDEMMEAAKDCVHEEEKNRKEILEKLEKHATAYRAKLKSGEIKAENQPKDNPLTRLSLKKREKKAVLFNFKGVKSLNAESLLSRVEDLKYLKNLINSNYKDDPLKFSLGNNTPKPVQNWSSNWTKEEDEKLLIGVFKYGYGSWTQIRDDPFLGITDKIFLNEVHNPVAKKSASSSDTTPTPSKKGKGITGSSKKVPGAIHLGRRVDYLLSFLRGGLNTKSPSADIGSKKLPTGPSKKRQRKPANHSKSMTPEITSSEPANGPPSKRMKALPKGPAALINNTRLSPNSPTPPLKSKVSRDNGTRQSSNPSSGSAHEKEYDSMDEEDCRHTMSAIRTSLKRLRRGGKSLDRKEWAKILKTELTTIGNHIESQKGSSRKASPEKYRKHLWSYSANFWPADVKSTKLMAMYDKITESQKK
- assayProtocol: ScCHD-1 Enzyme Inhibition Assay
- Assay type: functional
- Set-up: scale not given: in the data most compounds retested in dose-response had high values
- condition: 30 µM
This listing pairs compounds with measured Percent Effect.
Please reply with the bare figure in % and do not write the unit itself.

Past entries and their recorded results:
[Q] I'd like to know its Percent Effect. The compound in question is CCN(CC1CCCO1)C(=O)Nc1cc(C(=O)OC)ccc1F (centres undefined)
[A] -8.28

[Q] And for Cc1noc(C)c1CN(C)C(=O)NC1CCN(C2CC2)CC1 ?
[A] 3.21

[Q] Another compound to check: CC(C)(O)CN1CCN(C(=O)c2cc(Cl)cc3cccnc23)CC1
[A] -5.6

[Q] // query: CC(NC(=O)NCc1ccc(Cl)s1)c1ccccn1 (centres undefined)
[A] -12.8

[Q] Also, CNS(=O)(=O)CCCN1CCCC1c1cc(C)on1 (centres undefined) please.
[A] 0.192

[Q] Next compound up: O=C(c1ccco1)N1C[C@H]2CCCN(CC3CCOCC3)[C@H]2C1
[A] -2.11

Further cases:
[Q] For OCC1CCCN1c1cc(N2CCC(OC3CCCC3)CC2)ncn1 (centres undefined) , what is its reported Percent Effect?
[A] -22.6

[Q] Same for CCOc1ccc(C(C)NC(=O)N2CCC(C(N)=O)CC2)cc1OC (centres undefined)
[A] -0.606

[Q] Same for COc1cc(C(=O)NS(=O)(=O)c2cccc(C#N)c2)cc(Cl)c1OC
[A] 6.51

[Q] Another: COC(=O)c1sccc1S(=O)(=O)N1CCC(Oc2cccnn2)CC1
[A] -3.65

[Q] Next: Cc1cccc(CN2C[C@@H]3COC[C@]3(CNC(=O)c3ccsc3)C2)n1
[A] 108

[Q] Could you do the same for Cc1cnn(CC2CN(CC(=O)NCc3ccccn3)CCO2)c1 (centres undefined) , please?
[A] -8.5

[Q] Ok, now COc1ccc(OC)c(C(C)Nc2nc3c(C)nn(C)c3c(=O)n2C)c1 (centres undefined)
[A] -5.55
